# target.of.assay: Fibrinogen beta chain (Homo sapiens) (UniProt P02675)
# Sequence (P02675 whole entry, looked up): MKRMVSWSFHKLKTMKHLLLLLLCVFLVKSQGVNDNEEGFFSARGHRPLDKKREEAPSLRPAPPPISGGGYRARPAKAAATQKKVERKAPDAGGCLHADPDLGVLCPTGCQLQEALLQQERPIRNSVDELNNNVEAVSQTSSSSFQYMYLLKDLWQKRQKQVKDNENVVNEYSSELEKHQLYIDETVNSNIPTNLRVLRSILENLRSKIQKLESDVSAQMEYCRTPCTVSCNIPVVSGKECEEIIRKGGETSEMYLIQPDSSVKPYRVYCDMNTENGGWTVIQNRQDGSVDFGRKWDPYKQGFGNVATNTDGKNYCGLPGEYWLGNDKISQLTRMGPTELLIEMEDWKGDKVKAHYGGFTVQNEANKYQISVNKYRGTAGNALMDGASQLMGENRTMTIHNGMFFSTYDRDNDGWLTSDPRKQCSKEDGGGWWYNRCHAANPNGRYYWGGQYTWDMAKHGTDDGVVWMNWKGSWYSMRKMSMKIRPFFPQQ
# test.description: small molecules displacing Tn6 from DD(E) complex – biochemical, fluorescence polarization, human fibrin, Tn6 probe, primary screen (AID 720509);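 note: 0% = median of all compound wells on the plate and 100% = blocking peptide control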
# condition.parameters: Fibrin DD(E) TRITC-Tn6 fluorescence polarization displacement; at 8.3 µM; active compounds read high
The whole screen tested about 370,000 compounds, of which about 760 (0.21%) were called active. The sample holds actives, similar compounds and a random draw of the others, so the mix is not that of the screen.
The entries below come with measured inhibition values attached.
Lab book: enter the figure in %, no units written.

>>> measured("CO[C@H]([C@H](C)/C=C/N(C)C=O)[C@@H](C)C(=O)CC[C@H](C)[C@H](O)[C@H](C)[C@H]1OC(=O)/C=C/C(C)=C/[C@H](O)[C@H](OC)C[C@@H]2C=CC[C@@H](C[C@H](OC)[C@@]3(CO3)[C@@H](OC)C[C@@H](OC)[C@@H]1C)O2")
1.04
>>> measured("COC1=C[C@@H]2[C@@H]3Cc4ccc(OC)c(O)c4[C@]2(CCN3C)CC1=O")
5.14
>>> measured("OC(Cn1c2ccccc2c2ccccc21)C[n+]1ccccc1 (stereo unspecified)")
-10
>>> measured("CC1CNCCN1c1ccc(Cl)cc1 (stereo unspecified)")
0.71
>>> measured("Cc1cc(N2CCNC[C@@H]2C)ccc1N1CC[C@H](O)C1")
15.6

Proceed to the following item.
Given the molecule COc1ccccc1-n1c(O)c(C=NC2CC2)c(=O)[nH]c1=O , write its reported inhibition.
-5.91
